# ASSAY SUMMARY: gradient 5% acetonitrile 3 min, to 50% in 2 min, to 85% in 15 min, held 3 min, 100 µL/min
# MEASUREMENT CONDITIONS: column: Zorbax Extend-C18 2.1 x 50 mm; eluents: water / acetonitrile, 0.1% formic acid
Recorded measurements of RP-LC retention time, one per entry
Numeric only. Scale: s

CCCCNC(=O)Cn1c(CC)nc2c(c1=O)CN(Cc1ccccc1)CC2 = 605
Cc1ccc(-c2nc3ccccc3[nH]2)cc1NC(=O)CC(C)C = 656

Attention now shifts to the item below.
Please report the measured RP-LC retention time for COc1ccccc1N1CCN(C(=O)Cn2c(N3CCc4ccccc4C3)nc(C)cc2=O)CC1
759

Provenance of the data: the METLIN SMRT retention time set (Domingo-Almenara et al. 2019)
